Readings of abundance fitness for the listed variants
B1: POU domain, class 5, transcription factor 1, residues 134 to 212; numbered along this chain, Q01860 (parent)
chain: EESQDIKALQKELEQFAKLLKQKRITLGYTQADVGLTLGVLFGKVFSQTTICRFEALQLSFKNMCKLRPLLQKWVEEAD

Variants of: B1
Assay: abundance fitness (aPCA) (normalised: wild type 0, dead -1); higher = more abundant; growth selection in yeast, the domain comes from the species named
Conditions: Homo sapiens

Reference set (3 entries):
L67Q -0.756
Q72H -0.039
E77T -0.129

Value of abundance fitness reported for the variant `K7M` is -0.319
